# Experimental target: canine TRPM8 (Canis lupus familiaris, UniProt Q1A7N1)
# Sequence (Q1A7N1 1-1104): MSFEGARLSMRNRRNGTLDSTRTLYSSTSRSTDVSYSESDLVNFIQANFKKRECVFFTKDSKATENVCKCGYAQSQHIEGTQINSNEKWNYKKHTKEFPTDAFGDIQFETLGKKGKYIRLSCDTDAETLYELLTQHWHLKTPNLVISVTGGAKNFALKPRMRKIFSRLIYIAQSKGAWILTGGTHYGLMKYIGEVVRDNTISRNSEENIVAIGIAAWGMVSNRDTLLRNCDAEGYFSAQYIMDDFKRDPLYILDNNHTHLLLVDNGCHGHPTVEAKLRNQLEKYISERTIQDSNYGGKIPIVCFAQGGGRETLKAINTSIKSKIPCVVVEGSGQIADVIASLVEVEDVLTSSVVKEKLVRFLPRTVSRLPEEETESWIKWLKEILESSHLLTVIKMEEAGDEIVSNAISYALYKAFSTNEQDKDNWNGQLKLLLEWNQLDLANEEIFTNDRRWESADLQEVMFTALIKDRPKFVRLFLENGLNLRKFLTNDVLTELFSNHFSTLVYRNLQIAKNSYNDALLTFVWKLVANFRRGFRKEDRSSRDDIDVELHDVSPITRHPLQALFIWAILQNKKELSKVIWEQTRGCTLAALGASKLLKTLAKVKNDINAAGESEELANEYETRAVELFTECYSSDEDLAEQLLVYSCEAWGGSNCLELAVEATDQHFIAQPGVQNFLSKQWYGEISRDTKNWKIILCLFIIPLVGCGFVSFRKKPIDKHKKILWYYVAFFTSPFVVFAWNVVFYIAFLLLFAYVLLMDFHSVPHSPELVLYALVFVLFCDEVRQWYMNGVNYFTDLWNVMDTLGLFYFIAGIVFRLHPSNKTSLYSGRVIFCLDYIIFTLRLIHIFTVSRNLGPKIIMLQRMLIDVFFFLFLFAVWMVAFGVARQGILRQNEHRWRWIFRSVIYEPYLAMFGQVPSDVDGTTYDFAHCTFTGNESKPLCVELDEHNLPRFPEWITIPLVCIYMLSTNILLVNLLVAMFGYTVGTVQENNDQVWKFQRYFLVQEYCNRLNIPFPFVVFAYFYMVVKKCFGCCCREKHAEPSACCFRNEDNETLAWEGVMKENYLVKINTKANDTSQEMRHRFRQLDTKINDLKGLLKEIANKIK
# Assay summary: In Vitro Canine TRPM8 Functional Assay (Ca2+ fluorescence, icilin activation)
# Format: cell-based
# Test settings: HEK293 cells stably expressing canine TRPM8; icilin activation; eight-point dose-response; read-out: IC50
Entry class follows IC50: low = under 8 nM, middle = from 8 nM up to 20 nM, high = 20 nM and over

>>> label_value("CN(C)CCN(c1sc2ccccc2c1Br)S(=O)(=O)c1ccccc1")
"high"

Input line: Tag the class for O=S(=O)(c1ccc(-c2nnn[nH]2)cc1)N(CCCC(F)(F)F)c1sc2ccccc2c1Br
Output line: middle

Input line: Tag the class for O=S(=O)(c1cccnc1)N(Cc1cc(Cl)ccc1F)c1sc2ccccc2c1Br
Output line: middle

Input line: Tag the class for Cc1c(N(Cc2ccc(OC(F)(F)F)cc2)S(=O)(=O)c2cccnc2)sc2ccccc12
Output line: low

Input line: Tag the class for C=CCN(c1cc2ccccc2s1)S(=O)(=O)c1ccccc1
Output line: high

Input line: Tag the class for COC(=O)c1ccc(S(=O)(=O)N(CCCCC(F)(F)F)c2sc3ccccc3c2C(C)C)cc1
Output line: high
